protocol_description: yeast display, Sf9 membrane polyspecificity reagent, FACS + sequencing; frameworks hold sequencing errors
observed_property: polyreactivity (PSR sort gate)

QVQLVESGGGLVQAGGSLRLSCAASGFTFQDYAMGWYRQAPGKERELVASISNGGSTYYADSVKGRFTISRDNAKNTVYLQMNSLKPEDTAVYYCAKPYDPGPYHSSYRATDDYWGQGTQVTVSS : low polyreactivity
QVQLVESGGGLVQAGGSLRLSCAASGLTFRKYAMGWYRQAPGKERELVAAITRGGSTNYADSVKGRFTISRDNAKNTVYLQMNSLKPEDTAVYYCNTRPYRPFDYWGQGTQVTVSS : high polyreactivity
QVHLVESGGGLVQAGGSLRLSCAASGSIFDVNAMGWYRQAPGKERQLVAAISDSGGSTYYADSVKGRFTISRDNAKNTVYLQMNSLKPEDTAVYYCNADWSSYNYYDFDYWGQGTQVTVSS : low polyreactivity
QVQLVESGGGLVQAGGSLRLSCAASGSTFISYAMGWSRQAPGKERELVAAISSSTGRTYYADSVKGRVTISRDNAKNTVYLQMNSLKPEDTAVYYCNAVHRYERDYWGQGTQVTVSS : high polyreactivity

The reported value for QVQIVESGRGLFQAGGSLRISCPASGYIFLANAMGLYRQAPGKERELVAAITSGGGGTYYADSVKARFTISGDNAKNPVYLLMNTLKPEDTAVYHCAADHGRDGSSIEYWGHGTQVTVSS in terms of polyreactivity (PSR sort gate) is low polyreactivity

---

protocol_description: yeast display, Sf9 membrane polyspecificity reagent, FACS + sequencing; frameworks hold sequencing errors
observed_property: polyreactivity (PSR sort gate)

QVQLVESGGGVVQAGGSLRLSCAASGFIIARNAMGWYRQAPGKERELVAAISASGGRTYYSDSEKGRFTISRDNAKNTVYLQMNSLKPEDTAVYYCAARRDGRSGSYNYWGQGTQVTVSS : high polyreactivity
QVQLVESGGGLVQAGGSLRLSCAASGIIFGYNVMGWYRQAPGKERELVAAISGSGSSTYYADSVKGRFTISRDNAKITVYLQMNSLKPEDTAVYYCAARRYSTKRWRMYYWGQGTQVTVSS : high polyreactivity
QVQLVESGGGLVQAGGSLRLSCAASGFTYGYYAMGGYRQAPGKERELVAAITNGGRTNYADSVKGRFTISRDNAKNTVYLQMNSLKPEDTAVYYCATDHYWSREGYWGQGTQVTVSS : low polyreactivity
QVQLVESGGGLVQAGGSLRLSCAASGITFWSNAMGWYRQAPGKERELVAAITSSGGSTYYADSVKGRFTISRDNAKNNVYLQMNSLKPEDTAVYYCAAPISRSAGWDSYDYWGQGTQVTVSS : low polyreactivity
QVQLVESGGGLVQAGGSLRLSCAASGFIFRRNAMGWYRQAPGKERELVASIRSGGSTKYADSVKGRFTISRDNAKNTVYLQMNSLKPEDTAVYYCAKDRYHISFFYQMEYWGQGTQVTVSS : low polyreactivity
QVKLVESGGGLVQAGGSLRLSCAASGIIFYSYAIGGYRPAPGTERELVAAISSTGSTYYADSVKGRFTISRDNAKNTVYLQMNSLKPEDTAVYYCAATFYPYQVHHYYYWGQGTQVTVSS : low polyreactivity

The reported value for QVQLVESGGGLVQAGGSLRLSCAASGRTFSGYAMGWYRQAPGKERELVAAIRWSGGSTYYADSVKGRFTISRDNAKNTVYLQMNSLKPEDTAVYYCATRDYYYRYGYWGQGTQVTVSS in terms of polyreactivity (PSR sort gate) is high polyreactivity

The reported value for QDQLVESGGGLVQAGGSLRISCGASGRIFDIYAMGWYRQAPGKERELVADITSGGSTYYADSVQGRFTISRVNAKNTVYLQMNSLKPEDTAVYYCAARLFADYWGQGTHVTVSS in terms of polyreactivity (PSR sort gate) is low polyreactivity

The reported value for QVQLVESGGGLVQAGGSLRLSCAASGRIFQHNTMGWYRQAPGKEREFVAAIRRSGGSTYYADSVKGRFTISRDNAKNTVYLQMNSLKPEDTAVYYCAARDYPTGTRRWGGGDSWGQGTQVTVSS in terms of polyreactivity (PSR sort gate) is low polyreactivity

The reported value for QVQLVESGGGLVQAGGSLRLSCAASGRIFAPYAMGWYRQAPGKERELVAAISWRVGSTYYADSVKVRFTISRDYAKNTVYLQMNSLKPDDTAVYYCAARPSYRYDYLGQGTQVTVSS in terms of polyreactivity (PSR sort gate) is high polyreactivity

The reported value for QVQLVESGGGLVQAGGSLRLSFAASGRTFYGYAMGWYRQAPGKERELVASIRQSAGRTYYADSVKGRFTISRDISKNTVYLVMNSLKPEDSAVYYCAASIFLRSFYQQGNYWGQGTHVTVSS in terms of polyreactivity (PSR sort gate) is high polyreactivity
